B1: Hairpin Ribozyme (parent)
chain: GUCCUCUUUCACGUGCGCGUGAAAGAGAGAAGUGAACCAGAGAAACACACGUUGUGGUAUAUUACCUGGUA

Variants of: B1
Assay: self-cleavage, relative activity (ratio to wild type); higher = more cleavage; co-transcriptional
Values of self-cleavage greater than or equal to 0.2 map to 1; values below map to 0.

[[record]]
mutation_notation = "G27C G40A"
answer_label = 0

[[record]]
mutation_notation = "C6A A49U"
answer_label = 0

[[record]]
mutation_notation = "A31U A39C"
answer_label = 0

[[record]]
mutation_notation = "C10U G19U"
answer_label = 1

[[record]]
mutation_notation = "C46A G51C"
answer_label = 0

[[record]]
mutation_notation = "A44U U58G"
answer_label = 0

[[record]]
mutation_notation = "G54U A61G"
answer_label = 0

[[record]]
mutation_notation = "C38A A71U"
answer_label = 0

[[record]]
mutation_notation = "C38G G57C"
answer_label = 0

[[record]]
mutation_notation = "C6G U9G"
answer_label = 1

[[record]]
mutation_notation = "U8A C18U"
answer_label = 1

[[record]]
mutation_notation = "C48G G57U"
answer_label = 0

[[record]]
mutation_notation = "C48G U55G"
answer_label = 0

[[record]]
mutation_notation = "U8C A49G"
answer_label = 1

[[record]]
mutation_notation = "C18A G40A"
answer_label = 1

[[record]]
mutation_notation = "C18U G29C"
answer_label = 0

[[record]]
mutation_notation = "U2G G57A"
answer_label = 0

[[record]]
mutation_notation = "U14G U55C"
answer_label = 1

[[record]]
mutation_notation = "G1A U2G"
answer_label = 1

[[record]]
mutation_notation = "C37G G69A"
answer_label = 1

